- ASSAY SUMMARY: self-splicing fitness, log relative to wild type (ln ratio); higher = more splicing; Tetrahymena group I intron in knt gene, E. coli kanamycin selection, DiMSum; sequences stand for … in CUCUCU…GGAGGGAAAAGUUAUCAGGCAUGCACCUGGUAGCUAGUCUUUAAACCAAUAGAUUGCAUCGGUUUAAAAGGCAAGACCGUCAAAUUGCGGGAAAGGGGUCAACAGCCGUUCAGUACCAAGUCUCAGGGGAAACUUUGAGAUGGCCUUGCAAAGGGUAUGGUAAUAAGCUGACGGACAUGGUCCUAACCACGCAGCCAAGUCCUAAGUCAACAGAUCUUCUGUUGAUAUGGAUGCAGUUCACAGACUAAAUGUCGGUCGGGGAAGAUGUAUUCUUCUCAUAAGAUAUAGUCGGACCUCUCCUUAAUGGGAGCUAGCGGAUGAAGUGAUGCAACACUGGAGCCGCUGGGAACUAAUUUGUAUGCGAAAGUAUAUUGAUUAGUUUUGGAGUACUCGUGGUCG;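 also: selection with 25 µg/mL kanamycin versus none on LB agar overnight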
- RUN PARAMETERS: 30 °C
Decide by self-splicing fitness (ln): equal to or exceeding -3 means True, less means False.

SEQUENCE INPUT	DISCRETE LABEL
CAUCAGCAAUAUUACGCGAC	False
UCGUAGCAAUAUUACGGUCA	True
UGCCAGCAAUAUUACGAAAG	True
CGUAAGCAAUAUUACGAGGG	True
GCUUAGCAAUAUUACGAUUC	True
